B1: EEHEE_rd4_0763 (parent)
chain: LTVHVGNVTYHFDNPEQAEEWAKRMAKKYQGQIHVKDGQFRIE

Variants of: B1
Assay: folding stability dG (cDNA display proteolysis); higher = more stable
Settings: PBS, room temperature
parameter-measured: folding stability dG
Report the figure along with its unit, number first.

Asked: Report folding stability dG for D37R
Given back: 0.615 kcal/mol

Asked: Report folding stability dG for V8W
Given back: 1.81 kcal/mol

Asked: Report folding stability dG for T2V
Given back: 1.61 kcal/mol

Asked: Report folding stability dG for K36G
Given back: 1.39 kcal/mol

Asked: Report folding stability dG for N7M
Given back: 1.57 kcal/mol

Asked: Report folding stability dG for E20S
Given back: 1.62 kcal/mol

Asked: Report folding stability dG for D37I
Given back: 0.903 kcal/mol

Asked: Report folding stability dG for T2A
Given back: 1.51 kcal/mol

Asked: Report folding stability dG for Q17E
Given back: 1.84 kcal/mol

Asked: Report folding stability dG for Y10K
Given back: 0.806 kcal/mol

Asked: Report folding stability dG for D13E
Given back: 1.6 kcal/mol

Asked: Report folding stability dG for Y10R
Given back: 1.18 kcal/mol

Asked: Report folding stability dG for H11I
Given back: 1.56 kcal/mol

Asked: Report folding stability dG for D37H
Given back: 0.769 kcal/mol

Asked: Report folding stability dG for D13I
Given back: 1.48 kcal/mol

Asked: Report folding stability dG for V8I
Given back: 1.7 kcal/mol

Asked: Report folding stability dG for A22Y
Given back: 1.06 kcal/mol

Asked: Report folding stability dG for V35A
Given back: 0.96 kcal/mol

Asked: Report folding stability dG for A18I
Given back: 1.01 kcal/mol

Asked: Report folding stability dG for V3H
Given back: 0.452 kcal/mol

Asked: Report folding stability dG for T9D
Given back: 1.01 kcal/mol

Asked: Report folding stability dG for V35K
Given back: 1.17 kcal/mol

Asked: Report folding stability dG for D37Y
Given back: 0.742 kcal/mol

Asked: Report folding stability dG for R41M
Given back: 1.94 kcal/mol

Asked: Report folding stability dG for V8S
Given back: 1.37 kcal/mol

Asked: Report folding stability dG for R41I
Given back: 2.6 kcal/mol

Asked: Report folding stability dG for D13N
Given back: 1.72 kcal/mol

Asked: Report folding stability dG for G31V
Given back: 1.78 kcal/mol

Asked: Report folding stability dG for K28R
Given back: 1.78 kcal/mol

Asked: Report folding stability dG for Q17V
Given back: 1.57 kcal/mol

Asked: Report folding stability dG for R41E
Given back: 1.59 kcal/mol

Asked: Report folding stability dG for A18Y
Given back: 1.17 kcal/mol

Asked: Report folding stability dG for M25D
Given back: -0.162 kcal/mol

Asked: Report folding stability dG for V3P
Given back: 0.241 kcal/mol

Asked: Report folding stability dG for K36C
Given back: 2.46 kcal/mol

Asked: Report folding stability dG for E16I
Given back: 1.66 kcal/mol

Asked: Report folding stability dG for H34A
Given back: 1.56 kcal/mol

Asked: Report folding stability dG for H34S
Given back: 1.83 kcal/mol

Asked: Report folding stability dG for T2G
Given back: 0.823 kcal/mol

Asked: Report folding stability dG for K36A
Given back: 1.49 kcal/mol

Asked: Report folding stability dG for Q30T
Given back: 1.2 kcal/mol

Asked: Report folding stability dG for G38T
Given back: 0.621 kcal/mol

Asked: Report folding stability dG for G38I
Given back: 0.869 kcal/mol

Asked: Report folding stability dG for L1R
Given back: 1.7 kcal/mol

Asked: Report folding stability dG for V35P
Given back: 0.636 kcal/mol

Asked: Report folding stability dG for V8N
Given back: 1.41 kcal/mol

Asked: Report folding stability dG for R24G
Given back: 0.948 kcal/mol

Asked: Report folding stability dG for K23V
Given back: 1.56 kcal/mol

Asked: Report folding stability dG for V35I
Given back: 1.74 kcal/mol

Asked: Report folding stability dG for A18S
Given back: 0.551 kcal/mol

Asked: Report folding stability dG for I33P
Given back: 0.833 kcal/mol

Asked: Report folding stability dG for G31A
Given back: 1.86 kcal/mol

Asked: Report folding stability dG for D13R
Given back: 1.47 kcal/mol

Asked: Report folding stability dG for E20F
Given back: 1.57 kcal/mol

Asked: Report folding stability dG for Q17T
Given back: 1.57 kcal/mol

Asked: Report folding stability dG for L1M
Given back: 1.84 kcal/mol

Asked: Report folding stability dG for T2E
Given back: 1.48 kcal/mol

Asked: Report folding stability dG for A22E
Given back: 0.234 kcal/mol

Asked: Report folding stability dG for E20Q
Given back: 1.69 kcal/mol

Asked: Report folding stability dG for N14D
Given back: 1.81 kcal/mol

Asked: Report folding stability dG for F12C
Given back: 1.44 kcal/mol

Asked: Report folding stability dG for N7Q
Given back: 1.56 kcal/mol

Asked: Report folding stability dG for I42D
Given back: 1.17 kcal/mol

Asked: Report folding stability dG for N7E
Given back: 1.37 kcal/mol

Asked: Report folding stability dG for H11T
Given back: 1.67 kcal/mol

Asked: Report folding stability dG for H11C
Given back: 2.74 kcal/mol

Asked: Report folding stability dG for W21G
Given back: 0.008 kcal/mol

Asked: Report folding stability dG for R24A
Given back: 1.68 kcal/mol

Asked: Report folding stability dG for E19N
Given back: 1.35 kcal/mol
